Target: F508delCFTR (Homo sapiens, UniProt P13569, DEL508-508)
Construct: expressed in transfected cells; host or cells: CFBE41o- human lung-derived epithelial cells (CFBE4lo-F508delCFTR-HRP), doxycycline-inducible
Sequence (P13569 with tags, fused parts or gaps DEL508-508): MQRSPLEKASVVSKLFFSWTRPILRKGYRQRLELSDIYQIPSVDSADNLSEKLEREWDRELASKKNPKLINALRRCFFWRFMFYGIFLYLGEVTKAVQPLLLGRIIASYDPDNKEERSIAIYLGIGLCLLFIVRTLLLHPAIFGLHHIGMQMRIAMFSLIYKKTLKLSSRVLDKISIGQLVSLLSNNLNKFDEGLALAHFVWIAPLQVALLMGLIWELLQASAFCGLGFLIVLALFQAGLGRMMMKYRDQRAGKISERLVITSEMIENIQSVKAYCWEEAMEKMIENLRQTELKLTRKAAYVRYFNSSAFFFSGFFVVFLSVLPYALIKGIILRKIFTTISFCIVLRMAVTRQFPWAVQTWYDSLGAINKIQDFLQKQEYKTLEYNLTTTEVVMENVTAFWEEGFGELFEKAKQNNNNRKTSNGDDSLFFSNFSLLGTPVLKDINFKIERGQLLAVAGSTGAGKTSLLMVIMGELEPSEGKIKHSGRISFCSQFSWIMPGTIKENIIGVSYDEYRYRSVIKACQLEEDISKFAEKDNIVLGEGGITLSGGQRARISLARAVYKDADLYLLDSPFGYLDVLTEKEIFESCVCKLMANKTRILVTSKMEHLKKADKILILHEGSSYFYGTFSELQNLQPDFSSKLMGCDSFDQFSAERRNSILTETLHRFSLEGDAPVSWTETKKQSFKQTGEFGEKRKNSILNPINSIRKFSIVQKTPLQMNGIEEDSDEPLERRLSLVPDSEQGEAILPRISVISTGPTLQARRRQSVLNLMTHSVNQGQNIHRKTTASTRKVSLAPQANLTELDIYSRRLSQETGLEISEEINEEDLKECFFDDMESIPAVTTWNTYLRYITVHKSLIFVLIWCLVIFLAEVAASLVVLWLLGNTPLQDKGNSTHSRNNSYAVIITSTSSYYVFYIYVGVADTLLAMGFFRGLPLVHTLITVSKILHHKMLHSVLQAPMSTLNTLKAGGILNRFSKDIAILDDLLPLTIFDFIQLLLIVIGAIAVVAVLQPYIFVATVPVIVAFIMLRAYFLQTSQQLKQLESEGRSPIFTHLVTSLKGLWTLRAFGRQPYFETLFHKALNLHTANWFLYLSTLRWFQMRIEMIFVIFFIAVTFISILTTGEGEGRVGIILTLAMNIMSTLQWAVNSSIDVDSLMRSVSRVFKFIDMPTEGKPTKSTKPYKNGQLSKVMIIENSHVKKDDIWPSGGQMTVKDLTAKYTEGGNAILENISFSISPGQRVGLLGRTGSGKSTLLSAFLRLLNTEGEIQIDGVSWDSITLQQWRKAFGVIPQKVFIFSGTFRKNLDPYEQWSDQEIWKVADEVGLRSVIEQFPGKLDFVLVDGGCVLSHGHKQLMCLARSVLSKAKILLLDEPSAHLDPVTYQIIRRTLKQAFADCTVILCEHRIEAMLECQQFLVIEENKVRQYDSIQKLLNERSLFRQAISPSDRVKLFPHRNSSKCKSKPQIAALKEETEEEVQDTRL
Experiment: Cell Surface Expression-Horse Radish Peroxidase (CSE-HRP) Assay;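 note: co-corrector and positive control are both the same reference corrector at 2 µM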
Format: cell-based
Settings: with co-corrector (2 μM); maximum at any tested concentration, normalized to on-plate positive control
EXPERIMENTAL_READOUT: Maximum % activity (with co-corrector)

COc1cc2ccccc2cc1CN[C@H]1[C@H](C(C)(C)C)[C@@H](C(=O)O)N(C(=O)C2CCCCC2)[C@H]1c1ccccc1 :: +++ (≥350)
COc1ccc(C(F)(F)F)cc1CN[C@H]1[C@H](C(C)(C)C)[C@@H](C(=O)O)N(C(=O)CC2CCCCO2)[C@H]1c1ccccc1 (stereo partly drawn) :: +++ (≥350)
COc1ncc(C(F)(F)F)cc1CN[C@H]1[C@H](C(C)(C)OC)[C@@H](C(=O)O)N(C(=O)C2CCCCC2)[C@H]1c1ccccc1 :: +++ (≥350)
